TGI reference
System: NCI-H226 lung
procedure summary: NCI tumour cell line growth inhibition, 48 h
readout name: TGI

INSERT INTO measurements (compound, readout_name, endpoint_result) VALUES
  ('Cc1cc(N(CCC#N)CCC#N)ccc1/C(N=Nc1cccc([N+](=O)[O-])c1)=N/NC(=O)c1cc(Cl)ccc1O', 'TGI', '> 100 µM'),
  ('N=C(c1ccccc1)N(O)C1CCCCC1', 'TGI', '> 100 µM'),
  ('COP(C)(=O)/C(Cc1ccccc1)=N\O (stereo unspecified)', 'TGI', '> 100 µM'),
  ('CC[C@@]1(O)C(=O)OCc2c1cc1n(c2=O)Cc2c-1nc1ccccc1c2CC[Si](C)(C)C', 'TGI', '< 0.0467 µM'),
  ('CCOC(=O)/N=C(\N)SCc1ccccc1', 'TGI', '> 100 µM'),
  ('Cc1ccc(C)c(NC(=O)c2cc(-c3ccc([N+](=O)[O-])cc3)nc(N)n2)c1', 'TGI', '> 100 µM'),
  ('O=C1c2ccccc2C(=O)N1c1ccc(S(=O)(=O)Nc2ncccn2)cc1', 'TGI', '> 100 µM'),
  ('NC1C/C(=N\O)c2c(I)sc(I)c21 (stereo unspecified)', 'TGI', '34.1 µM'),
  ('Cc1c(C(=O)/C=C/c2ccc(Cl)cc2)[n+](=O)c2ccccc2n1[O-]', 'TGI', '33.7 µM'),
  ('c1ccc(N=C2SC(=NNc3ccccc3)SC2=Nc2ccccc2)cc1', 'TGI', '> 100 µM'),
  ('CC1(C)N=C(N)N=C(N)N1c1ccc(F)c(C(F)(F)F)c1', 'TGI', '> 100 µM');
